These data points were gathered from ChEMBL document CHEMBL3507680.

- method.summary: Human HepG2 cell viability assay in 384 well format
- Type: toxicity, cell-based
- Design: dose 125 nL, time 70.5 hour; concentration not given beside the values
- test.conditions: HepG2 cells, read-out: Inhibition
Catalogue of cytotoxicity at 70.5 h readings, one per entry.

# molecule, reading.unit, cytotoxicity at 70.5 h
data = [
    ("CS(=O)(=O)c1ccc2c(c1)N(C(=O)Cc1ccc(F)cc1)CCC2", "%", 14.3),
    ("Cc1nc(C2CCCN2Cc2cc(=O)n(C)c(=O)n2C)no1 (stereo unspecified)", "%", -1.72),
    ("Cc1noc(C)c1CN1CCN(C(=O)CCn2cncn2)CC1", "%", -6),
    ("Cc1cc(CNC2(c3ccccc3)CCCCC2)no1", "%", -4.77),
    ("O[C@H]1CN(CCCOc2ccccc2F)CC[C@@]12CCCO2", "%", -2.73),
    ("CCCc1cc(NCCn2cccn2)n2nccc2n1", "%", 1.84),
    ("O=C(Cc1ccc2c(c1)OCC2)Nc1nc(C(F)(F)F)n[nH]1", "%", 0.788),
    ("CC(C)CN1C(=O)CC[C@H]2CN(C(=O)Cn3ccc(=O)cc3)CC[C@H]21", "%", 21.4),
    ("CC1N(c2cnn(C)c2)C(=O)COC12CCN(Cc1ccco1)CC2 (stereo unspecified)", "%", -3.36),
    ("CCN1CCN(c2ccc(NC(=O)CC(C)C)c(C)c2)CC1", "%", -20.9),
    ("CCc1nnc2n1CCN(C(=O)c1cc(C)n(-c3ccccc3)c1C)C2", "%", -4.27),
    ("Cc1cc(-c2nccs2)nc(C2CCN(Cc3cccs3)CC2)n1", "%", -5.42),
    ("CC1CCN(CCCNC(=O)NC(C)c2nncn2C)CC1 (stereo unspecified)", "%", -3.78),
    ("Cc1cccc(CN2CCC3(CCN(c4ncccn4)C3)C2=O)c1 (stereo unspecified)", "%", -8.75),
    ("CCc1nnsc1C(=O)N1CCCC(c2nc3ccccc3[nH]2)C1 (stereo unspecified)", "%", -14.3),
    ("CCOc1ccc(C(=O)NCc2ccnc(N3CCN(C)CC3)c2)cn1", "%", -7.61),
    ("Cc1ccc2c(n1)N(CCn1cccn1)CCN(C(=O)CC1CC1)C2", "%", -15.3),
    ("O=C1NCCN(C(=O)c2cn3ccsc3n2)C1Cc1ccccc1 (stereo unspecified)", "%", -5.01),
    ("CCN(Cc1nc(COC)no1)C(=O)CCn1c(C)cc2ccccc21", "%", -0.00353),
    ("Cn1ccnc1CN1CCC(CCCc2ccccn2)(C(N)=O)CC1", "%", -13.4),
    ("CC(=O)NC1CCCN(C(=O)NCc2cccnc2-n2cccn2)C1 (stereo unspecified)", "%", 3.84),
    ("CN(C)C(=O)N1CCN(C(=O)c2ccn3ccnc3c2)CC1", "%", -3.58),
    ("CCn1nc(CC(C)C)cc1C(=O)NCCS(=O)(=O)N(C)C", "%", 3.89),
    ("CCN1CC2(CC1=O)CN(Cc1cccs1)CCN(C(=O)C(C)C)C2 (stereo unspecified)", "%", 2.16),
    ("CC(C)c1nnc2n1CC(CNCc1nc3ccccc3s1)CC2 (stereo unspecified)", "%", 21.9),
    ("Cc1noc(C)c1CN(C)C(=O)NC1CCCN(S(C)(=O)=O)C1 (stereo unspecified)", "%", 0.729),
    ("Cn1ccnc1CN1CCN2C[C@H](OCc3cccnc3)C[C@H]2C1", "%", -2.68),
    ("NCC1CN(C(=O)Cn2ncc(N3CCCCC3)cc2=O)CCO1 (stereo unspecified)", "%", -2.61),
    ("CC(C)(O)CN1CCN(C(=O)COC2CCCC2)CC1", "%", -2.37),
    ("Cc1nc2c(c(NCC(O)c3ccccc3Cl)n1)CCNCC2 (stereo unspecified)", "%", -11.8),
    ("CN(C)C(=O)N1C[C@@H]2CC[C@H](C1)N(Cc1nnc(C3CC3)o1)C2", "%", -16.8),
    ("CN1CCN(C(=O)Cn2nc(C(F)(F)F)c(Br)c2C2CC2)CC1", "%", -10.9),
    ("Cc1ccnc(OC[C@@]23CCO[C@@H]2CCN(c2ncc(F)cn2)C3)n1", "%", -6.92),
    ("CN(CC(=O)N1CCc2[nH]c3ccccc3c2C1)CC1OCCO1", "%", 24),
    ("Cn1cc(CCCN2CCCC(c3cc(C(F)(F)F)[nH]n3)C2)cn1 (stereo unspecified)", "%", 6.94),
    ("CCc1nnc2n1CCN(C(=O)c1cc3cc(C)ccc3[nH]1)C2", "%", -13.6),
    ("CNc1nc(CNC(=O)Nc2ccccc2OC(C)C)cs1", "%", 14),
    ("O=C(c1cc[nH]n1)N1CCC(c2nccn2Cc2ccncc2)CC1", "%", 0.529),
    ("O=C(NCc1ncc[nH]1)c1c(F)cccc1I", "%", 11.2),
    ("CN(C)c1cc(C2CCCN(Cc3cnn(C)c3)C2)ccn1 (stereo unspecified)", "%", -0.665),
    ("CN(C)c1ncccc1C(=O)N1CCc2c(ncn2C2CC2)C1", "%", -4.54),
    ("COC[C@@]12CCO[C@@H]1CCN(Cc1ccccc1OC)C2", "%", -12.9),
    ("O=C1CCCc2[nH]c(=O)c(C(=O)N(Cc3ccsc3)C3CC3)cc21", "%", -1.04),
    ("Cc1ccc(CNCCS(=O)(=O)N2CCOCC2)cc1C", "%", -6.06),
    ("Cc1cc(C)n(Cc2cc(C(=O)N3CCCCC3c3nccs3)n[nH]2)n1 (stereo unspecified)", "%", 8.98),
    ("CCS(=O)(=O)N1CC[C@@H]2[C@H](CC1)N(CC(C)C)CCS2(=O)=O", "%", -1.74),
]
